- Species: Rattus norvegicus
- assayMethodText: Open TG-GATES - Regimen: Single
- Type: toxicity, organism-based, Sprague-Dawley
- Set-up: regimen Single, gender Male, age 6 weeks
- conditionInfo: in vivo, po, 0 mg/kg, 9 h, tissue Liver, route gavage, dose level Control
Tag: Y if measured LIVER is not below 8 g, N if it is.

[
  {
    "compound": "COc1ccc2[nH]c([S+]([O-])Cc3ncc(C)c(OC)c3C)nc2c1 (stereo not drawn) [OMEPRAZOLE]",
    "labelClass": "Y"
  },
  {
    "compound": "CC(C)OC(=O)C(C)(C)Oc1ccc(C(=O)c2ccc(Cl)cc2)cc1 [FENOFIBRATE]",
    "labelClass": "N"
  },
  {
    "compound": "Cc1ccc(C)c(OCCCC(C)(C)C(=O)O)c1 [GEMFIBROZIL]",
    "labelClass": "Y"
  },
  {
    "compound": "CCOc1ccc(NC(=O)CC(C)O)cc1 (stereo not drawn) [BUCETIN]",
    "labelClass": "Y"
  },
  {
    "compound": "CC1=C(/C=C/C(C)=C/C=C/C(C)=C/CO)C(C)(C)CCC1 [RETINOL]",
    "labelClass": "Y"
  },
  {
    "compound": "CC/C(=C(\\c1ccccc1)c1ccc(OCCN(C)C)cc1)c1ccccc1 [TAMOXIFEN]",
    "labelClass": "N"
  },
  {
    "compound": "CN(C)CCCN1c2ccccc2CCc2ccc(Cl)cc21 [CLOMIPRAMINE]",
    "labelClass": "Y"
  },
  {
    "compound": "O=C(CCCN1CCC(O)(c2ccc(Cl)cc2)CC1)c1ccc(F)cc1 [HALOPERIDOL]",
    "labelClass": "Y"
  },
  {
    "compound": "CCCNC(=O)NS(=O)(=O)c1ccc(Cl)cc1 [CHLORPROPAMIDE]",
    "labelClass": "N"
  },
  {
    "compound": "CN(C)CCN(Cc1cccs1)c1ccccn1",
    "labelClass": "N"
  },
  {
    "compound": "CCOC(=O)CCC(=O)O[C@H]1[C@H](O[C@@H]2[C@@H](C)[C@H](O[C@H]3C[C@@](C)(OC)[C@@H](O)[C@H](C)O3)[C@@H](C)C(=O)O[C@H](CC)[C@@](C)(O)[C@H](O)[C@@H](C)C(=O)[C@H](C)C[C@@]2(C)O)O[C@H](C)C[C@@H]1N(C)C [ERYTHROMYCIN ETHYLSUCCINATE]",
    "labelClass": "Y"
  },
  {
    "compound": "NC(N)=Nc1nc(CSCCC(N)=NS(N)(=O)=O)cs1 [FAMOTIDINE]",
    "labelClass": "Y"
  },
  {
    "compound": "NNC(=O)c1ccncc1 [ISONIAZID]",
    "labelClass": "Y"
  }
]

----------
BUN values, listed per item
- Organism: Rattus norvegicus
- assayMethodText: Open TG-GATES - Regimen: Daily Repeat
- Assay type: toxicity, organism-based, Sprague-Dawley
- Set-up: regimen Daily Repeat, gender Male, age 6 weeks
- conditionInfo: in vivo, po, 0 mg/kg, 72 h, tissue Plasma, route gavage, dose level Control, time 3 day

[
  {
    "compound": "CCOc1ccc(NC(=O)CC(C)O)cc1 (stereo unspecified)",
    "BUN / mg/dL": 14.8
  },
  {
    "compound": "COC1=CC(=O)C[C@@H](C)[C@]12Oc1c(Cl)c(OC)cc(OC)c1C2=O",
    "BUN / mg/dL": 14.6
  },
  {
    "compound": "COc1ccc2[nH]c([S+]([O-])Cc3ncc(C)c(OC)c3C)nc2c1 (stereo unspecified)",
    "BUN / mg/dL": 15.2
  },
  {
    "compound": "O=C(CCCN1CCC(O)(c2ccc(Cl)cc2)CC1)c1ccc(F)cc1",
    "BUN / mg/dL": 19.2
  },
  {
    "compound": "NC(N)=Nc1nc(CSCCC(N)=NS(N)(=O)=O)cs1",
    "BUN / mg/dL": 13.8
  },
  {
    "compound": "CC1=C(/C=C/C(C)=C/C=C/C(C)=C/CO)C(C)(C)CCC1",
    "BUN / mg/dL": 18.6
  },
  {
    "compound": "CCOC(=O)CCC(=O)O[C@H]1[C@H](O[C@@H]2[C@@H](C)[C@H](O[C@H]3C[C@@](C)(OC)[C@@H](O)[C@H](C)O3)[C@@H](C)C(=O)O[C@H](CC)[C@@](C)(O)[C@H](O)[C@@H](C)C(=O)[C@H](C)C[C@@]2(C)O)O[C@H](C)C[C@@H]1N(C)C [ERYTHROMYCIN ETHYLSUCCINATE]",
    "BUN / mg/dL": 17.8
  },
  {
    "compound": "NNC(=O)c1ccncc1",
    "BUN / mg/dL": 19
  },
  {
    "compound": "CCCNC(=O)NS(=O)(=O)c1ccc(Cl)cc1 [CHLORPROPAMIDE]",
    "BUN / mg/dL": 16.8
  },
  {
    "compound": "CN(C)CCN(Cc1cccs1)c1ccccn1",
    "BUN / mg/dL": 16.8
  },
  {
    "compound": "CN1C(=O)CN=C(c2ccccc2)c2cc(Cl)ccc21",
    "BUN / mg/dL": 17.2
  }
]
